experiment.summary: chemical genetic growth profiling, strain panel (AID 1159580);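 also: tested at 20 µM; growth read once vehicle control cultures reached saturation at 30 °C; lower values mean less growth of the strain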
condition.details: S. cerevisiae deletion strains, growth OD, locus YGR252W, strain gcn5
About 2,000 (36%) of roughly 5,500 compounds were called active. Roughly 18% stayed inconclusive and do not appear here. Rule as the data show it: active = normalized growth mostly below about 0.91 (no sharp cut-off); inconclusive = no clear call, values can overlap the other calls; inactive = mostly above about 0.92. The list shows a part of the results.
Select the matching outcome among active, inactive

Reference set (5 entries):
>>> df
                                   compound  classification
0  COc1cc2c(c(OC)c1OC)-c1ccc(OC)c(=O)cc1[C@@H](NC(C)=O)CC2        inactive
1  CCN(CC)CCOc1ccc(/C(=C(\Cl)c2ccccc2)c2ccccc2)cc1          active
2  COc1cc(C(=O)NCc2ccc(OCCN(C)C)cc2)cc(OC)c1OC        inactive
3      CCOP(=S)(OCC)SCn1c(=O)oc2cc(Cl)ccc21        inactive
4  CN(C)CCOC(C)(c1ccccc1)c1ccccn1 (stereo unspecified)        inactive

Shifting focus to the compound that follows.
Task: Field: outcome | Entry: C=C(C)[C@H]1CC=C(C(=O)O)CC1
Result: active
